meta.source: the supplement of paper PMC12667976

B1: library; numbered along this chain (parent)
chain: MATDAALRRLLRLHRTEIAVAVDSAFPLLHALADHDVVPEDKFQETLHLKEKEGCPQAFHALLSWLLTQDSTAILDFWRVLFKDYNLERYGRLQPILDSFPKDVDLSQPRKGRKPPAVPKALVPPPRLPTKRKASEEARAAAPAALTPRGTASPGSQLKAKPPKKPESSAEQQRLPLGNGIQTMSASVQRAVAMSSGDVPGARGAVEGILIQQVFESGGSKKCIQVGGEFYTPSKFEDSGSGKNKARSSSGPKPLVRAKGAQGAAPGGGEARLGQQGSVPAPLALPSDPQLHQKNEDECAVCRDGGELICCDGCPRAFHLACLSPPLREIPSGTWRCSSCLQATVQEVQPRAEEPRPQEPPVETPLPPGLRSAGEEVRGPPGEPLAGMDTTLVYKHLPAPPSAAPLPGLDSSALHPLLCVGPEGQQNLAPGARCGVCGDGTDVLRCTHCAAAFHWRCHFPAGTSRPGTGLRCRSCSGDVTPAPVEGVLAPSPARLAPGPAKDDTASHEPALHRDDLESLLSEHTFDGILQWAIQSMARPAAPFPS

- Variants of: B1
- assay-comment: AIRE transcriptional activation functional score (insulin promoter-GFP; nonsense median 0, synonymous median 1) (normalised score); higher = higher AIRE activity (more reporter activation)
- experimental-setup: with insulin promoter-GFP reporter in HEK293
Returns one of class 1 or class 0; class 1 when AIRE transcriptional activation functional score is >= 0.8.

| mutation-spec | cat |
| --- | --- |
| H60W | class 0 |
| A482S | class 1 |
| R139K | class 1 |
| F59G | class 0 |
| T151A | class 1 |
| A429L | class 1 |
| I96E | class 0 |
| A141L | class 1 |
| P200I | class 0 |
| E51L | class 0 |
| C437F | class 0 |
| L470Q | class 1 |
| G91L | class 0 |
| E51V | class 0 |
| S339W | class 1 |
| A510R | class 0 |
| T72K | class 1 |
| A505F | class 0 |
| T46G | class 0 |
| I224N | class 0 |
| L10M | class 0 |
| L255G | class 1 |
| H396Y | class 1 |
| F453Q | class 0 |
| S250V | class 1 |
| L62F | class 0 |
| W455T | class 0 |
| D198A | class 1 |
| Q189T | class 0 |
| L406Q | class 1 |
| I533H | class 0 |
| L66C | class 0 |
| V256I | class 0 |
| G431H | class 1 |
| L529D | class 0 |
| E229P | class 0 |
| A202S | class 1 |
| E522L | class 0 |
| S220M | class 1 |
| A191M | class 0 |
| L519P | class 0 |
| H60M | class 0 |
| T151N | class 1 |
| R456I | class 1 |
| Q530H | class 1 |
| G408Y | class 1 |
| R303S | class 1 |
| G369S | class 1 |
| L93I | class 0 |
| G268F | class 1 |
| L67S | class 0 |
| A246L | class 1 |
| R247T | class 1 |
| R494L | class 0 |
| G54H | class 0 |
| S278F | class 1 |
| N427H | class 1 |
| E229H | class 0 |
| L529F | class 0 |
| S196R | class 1 |
| G438D | class 0 |
| C311T | class 1 |
| D103H | class 1 |
| L370S | class 1 |
| E17C | class 0 |
| D288H | class 1 |
| G112L | class 1 |
| V206R | class 0 |
| I209L | class 0 |
| P407K | class 1 |
| A300N | class 1 |
| S196W | class 0 |
| K245H | class 1 |
| Q57P | class 0 |
| P361V | class 1 |
| P380R | class 1 |
| E40V | class 0 |
